- ASSAY_REMARKS: physchem
- TEST_CONTEXT: acetate buffer 0.5 m, pH 5.5
Counter-ions that a name gives are not always drawn.
RECORDED_METRIC: solubility (mg/mL)

> print(dat)
                                   molecule  numeric.value
1  CN1CCC[C@@H]1CCO[C@](C)(c1ccccc1)c1ccc(Cl)cc1 [Clemastine Fumarate, clemastine fumarate]           18.2

---

- ASSAY_REMARKS: physchem
- TEST_CONTEXT: sodium maleate 0.5 m, pH 6.5, Clemastine Fumarate Solubility
Counter-ions that a name gives are not always drawn.
RECORDED_METRIC: solubility at 24 h (mg/mL)

> print(dat)
                                   molecule  measurement.unit  numeric.value
1  CN1CCC[C@@H]1CCO[C@](C)(c1ccccc1)c1ccc(Cl)cc1 [Clemastine Fumarate, clemastine fumarate]             mg/mL             65

---

- ASSAY_REMARKS: physchem
- TEST_CONTEXT: ammonium acetate 1.0 m, pH 5.7, Clemastine Fumarate Solubility
Where a name gives a salt, the structure may show the parent alone.
RECORDED_METRIC: solubility at 24 h (mg/mL)

> print(dat)
                                   molecule     recorded.metric  numeric.value
1  CN1CCC[C@@H]1CCO[C@](C)(c1ccccc1)c1ccc(Cl)cc1 [Clemastine Fumarate, clemastine fumarate]  solubility at 24 h           43.3

---

- ASSAY_REMARKS: physchem
- TEST_CONTEXT: sodium malate 0.5 m, pH 5.5, Clemastine Fumarate Solubility
Where a name gives a salt, the structure may show the parent alone.
RECORDED_METRIC: solubility at 24 h (mg/mL)

> print(dat)
                                   compound  measurement.unit  numeric.value
1  CN1CCC[C@@H]1CCO[C@](C)(c1ccccc1)c1ccc(Cl)cc1 [Clemastine Fumarate, clemastine fumarate]             mg/mL           25.5

---

- ASSAY_REMARKS: physchem
- TEST_CONTEXT: sodium glycinate 0.5 m, pH 9.4, Clemastine Fumarate Solubility
Where a name gives a salt, the structure may show the parent alone.
RECORDED_METRIC: solubility at 24 h (mg/mL)

> print(dat)
                                   molecule     recorded.metric  numeric.value
1  CN1CCC[C@@H]1CCO[C@](C)(c1ccccc1)c1ccc(Cl)cc1 [Clemastine Fumarate, clemastine fumarate]  solubility at 24 h           26.6

---

- ASSAY_REMARKS: physchem
- TEST_CONTEXT: ammonium acetate 0.25 m, pH 5.5, Clemastine Fumarate Solubility
Structures can show the parent of a compound that is named as a salt.
RECORDED_METRIC: solubility at 24 h (mg/mL)

> print(dat)
                                   compound     recorded.metric  measurement.unit  numeric.value
1  CN1CCC[C@@H]1CCO[C@](C)(c1ccccc1)c1ccc(Cl)cc1 [Clemastine Fumarate, clemastine fumarate]  solubility at 24 h             mg/mL           12.2

---

- ASSAY_REMARKS: physchem
- TEST_CONTEXT: sodium ascorbate 0.25 m, pH 5.2, Clemastine Fumarate Solubility
Structures can show the parent of a compound that is named as a salt.
RECORDED_METRIC: solubility at 24 h (µg/mL)

> print(dat)
                                   compound     recorded.metric  numeric.value
1  CN1CCC[C@@H]1CCO[C@](C)(c1ccccc1)c1ccc(Cl)cc1 [Clemastine Fumarate, clemastine fumarate]  solubility at 24 h           7500
